Tested on: NCI-H838
Experiment: relative viability (nuclei count vs DMSO), 5 days (fraction); higher = more cells survive
Conditions: first compound 0.253 µM
Reported relative viability by item:
readout_name: relative viability

1) Nc1cccc2c1CN(C1CCC(=O)NC1=O)C2=O (centres undefined) [Lenalidomide] + Cc1nc(NC(=O)N2CCC[C@H]2C(N)=O)sc1-c1ccnc(C(C)(C)C(F)(F)F)c1 [Alpelisib] (partner 2 µM): 0.97
2) Nc1cccc2c1CN(C1CCC(=O)NC1=O)C2=O (centres undefined) [Lenalidomide] + Nc1ncn([C@H]2C[C@H](O)[C@@H](CO)O2)c(=O)n1 [Decitabine] (partner 2 µM): 0.483
3) Nc1cccc2c1CN(C1CCC(=O)NC1=O)C2=O (centres undefined) [Lenalidomide] + CC(C)C[C@H](NC(=O)[C@H](Cc1ccccc1)NC(=O)c1cnccn1)B(O)O [Bortezomib] (partner 0.002 µM): 0.801
4) Nc1cccc2c1CN(C1CCC(=O)NC1=O)C2=O (centres undefined) [Lenalidomide] + Cc1cc(Nc2cc(N3CCN(C)CC3)nc(Sc3ccc(NC(=O)C4CC4)cc3)n2)n[nH]1 [Tozasertib] (partner 0.1 µM): 0.322
